Source listed as ChEMBL document CHEMBL1129168.

Examples of compounds with documented IC50 follow.
Organism: Homo sapiens
Test: Compound was tested for its activity against HIV replication in human peripheral blood lymphocytes (PBLs) using MTT-based cytotoxicity assay.
Type: functional, organism-based

cpd_smiles=Nc1nc(N)c2ncn(OCCCCP(=O)(O)O)c2n1 reported_measurement="> 100 µM"

Lab note: Nc1nc(O)c2ncn(OCCCCP(=O)(O)O)c2n1 gave IC50 of > 100 µM

----------
Test system: D34
Assay: Compound was tested in vitro for antiviral activity against Human immunodeficiency virus type-1 in D34 cells.
Type: functional, cell-based
Examples of compounds with documented IC50 follow.

The cases that follow already have their IC50 on record.
compound=Nc1nc(N)c2ncn(OCCCCP(=O)(O)O)c2n1 reported_measurement="1000 nM"
compound=Nc1nc(O)c2ncn(OCCCCP(=O)(O)O)c2n1 reported_measurement="10 nM"
compound="Nc1nc(O)c2ncn(OCC(CO)CCP(=O)(O)O)c2n1 (stereo not given)" reported_measurement="> 100000 nM"
compound=Nc1ncnc2c1ncn2OCCCCP(=O)(O)O reported_measurement="> 100000 nM"

Now look at this entry.
Lab note: Nc1ncnc2c1ncn2OCC(CO)CCP(=O)(O)O (stereo not given) gave IC50 of > 100000 nM
